Biological target: human PPARalpha (Homo sapiens)
Construct: human PPARalpha receptor (amino acids S167-Y468)
Sequence (Q07869 167-468): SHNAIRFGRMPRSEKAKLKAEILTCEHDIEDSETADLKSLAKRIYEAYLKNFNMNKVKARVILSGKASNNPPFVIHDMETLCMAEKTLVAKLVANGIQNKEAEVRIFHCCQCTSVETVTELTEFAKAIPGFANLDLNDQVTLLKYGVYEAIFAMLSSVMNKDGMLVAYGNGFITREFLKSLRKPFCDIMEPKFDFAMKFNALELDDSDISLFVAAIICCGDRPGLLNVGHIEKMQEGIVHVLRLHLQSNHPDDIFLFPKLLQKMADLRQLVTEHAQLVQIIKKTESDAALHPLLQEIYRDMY
Assay: Cellular PPARalpha assay (stably transfected HEK luciferase reporter cell line)
Conditions: PPARalpha reporter cell line (HEK, GR-GAL4-humanPPARalpha-LBD), 24 h incubation
pEC50: −log10 of the molar value.
Endpoint Name: pEC50

COc1ccc(-c2nc(COCCCOCc3cccc(C)c3C(=O)O)c(C)o2)cc1OC ... 8.06
CCc1oc(-c2cccc(OC)c2)nc1COCCCOCc1cccc(C)c1C(=O)O ... 8.43
COc1cccc(-c2nc(COCCCCOCc3cccc(C)c3C(=O)O)c(C)o2)c1 ... 8.85

[I] Cc1cccc(COCCCCOCc2nc(-c3cccc(C(F)(F)F)c3)oc2C(C)C)c1C(=O)O
[II] Cc1cccc(COCCCOCc2nc(-c3ccc(-c4ccccc4)cc3)oc2C)c1C(=O)O
[III] COc1cccc(-c2nc(COCC(C)(C)COCc3cccc(C)c3C(=O)O)c(C)o2)c1
[IV] Cc1cccc(COCCCCOCc2nc(-c3ccc(-c4ccccc4)cc3)oc2C)c1C(=O)O
[V] Cc1ccc(-c2nc(COCCCOCc3cccc(C)c3C(=O)O)c(-c3ccccc3)o2)cc1
Arrange these 5 compounds in increasing order of pEC50. Order the labels as requested and give them as your answer.
V, IV, III, II, I
(V: 7.06, IV: 7.68, III: 7.89, II: 8.38, I: 8.80)

====

Target: human PPARgamma (Homo sapiens, UniProt P37231)
Construct: human PPARgamma receptor (amino acids I152-Y475)
Sequence (P37231 182-505 limits assumed): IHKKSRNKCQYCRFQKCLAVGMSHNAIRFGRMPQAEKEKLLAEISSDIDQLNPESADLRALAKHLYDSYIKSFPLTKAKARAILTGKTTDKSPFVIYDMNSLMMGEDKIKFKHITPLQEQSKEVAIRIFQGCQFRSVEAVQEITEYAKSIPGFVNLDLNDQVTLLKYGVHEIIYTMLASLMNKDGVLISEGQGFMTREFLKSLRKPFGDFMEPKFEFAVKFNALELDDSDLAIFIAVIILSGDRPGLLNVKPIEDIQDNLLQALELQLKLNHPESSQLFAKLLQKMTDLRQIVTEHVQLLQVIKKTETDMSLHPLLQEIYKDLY
Assay: Cellular PPARgamma assay (transiently transfected HEK cells, luciferase reporter)
Conditions: HEK cells transiently transfected with GAL4-humanPPARgammaLBD, 48 h incubation, firefly/Renilla luciferase ratio
Endpoint Name: EC50 (nM)

Examples from the recorded data:
COc1cccc(-c2nc(COCC(C)(C)COCc3cccc(C)c3C(=O)O)c(C)o2)c1 ... 390
Cc1ccc(-c2nc(COCCCOCc3cccc(C)c3C(=O)O)c(C3CCCCC3)o2)cc1 ... 710
COc1cccc(-c2nc(COCCCCOCc3cccc(C)c3C(=O)O)c(C)o2)c1 ... 17
Cc1cccc(COCCCCOCc2nc(-c3cccc(C(F)(F)F)c3)oc2C(C)C)c1C(=O)O ... 72

[1] Cc1cccc(COCCCCOCc2nc(-c3ccc(-c4ccccc4)cc3)oc2C)c1C(=O)O
[2] CCc1oc(-c2cccc(OC)c2)nc1COCCCOCc1cccc(C)c1C(=O)O
[3] Cc1ccc(-c2nc(COCCCOCc3cccc(C)c3C(=O)O)c(-c3ccccc3)o2)cc1
[4] Cc1cccc(COCCCOCc2nc(-c3ccc(Oc4ccccc4)cc3)oc2C)c1C(=O)O
Arrange these 4 compounds in increasing order of EC50. Order the labels as requested and give them as your answer.
1, 4, 2, 3

====

Biological target: human PPARgamma (Homo sapiens, UniProt P37231)
Construct: human PPARgamma receptor (amino acids I152-Y475)
Assay: Cellular PPARgamma assay (transiently transfected HEK cells, luciferase reporter)
Conditions: HEK cells transiently transfected with GAL4-humanPPARgammaLBD, 48 h incubation, firefly/Renilla luciferase ratio
Endpoint Name: EC50 (nM)

[P] Cc1cccc(COCCCOCc2nc(-c3ccc(-c4ccccc4)cc3)oc2C)c1C(=O)O
[Q] COc1ccc(-c2nc(COCCCOCc3cccc(C)c3C(=O)O)c(C)o2)cc1OC
# compare EC50 for P vs Q ; return the one with the smaller value // respond with label for picked entry
P

Hey, just so you know, these numbers are from patent US7732471B2.
